Measured values drawn from patent US12030897B2 for this set.

Assay: Pharmacokinetic properties in rats
Format: in vivo
Conditions: male, SD, plasma; rat, IV 5 mg/kg

| smiles_text | value_unit | clearance |
| --- | --- | --- |
| Cc1cc(Nc2ncnn3ccc(CN4CCC(N)CC4)c23)ccc1Oc1ccn2ncnc2c1 | mL/min/kg | 25.4 |

###

Test system: NCI-N87 cell
Test: Cell proliferation inhibitory activity, Cell-Titer-Glo, NCI-N87
Type: cell-based, human
Conditions: Homo sapiens, NCI-N87, 72 h; 3 days incubation
pIC50: −log10 of the molar value.
result_type: pIC50

| smiles_text | measured_number |
| --- | --- |
| CCNC1CCN(Cc2ccn3ncnc(Nc4ccc(Oc5ccn6ncnc6c5)c(C)c4)c23)CC1 | 7.64 |
| Cc1cc(Nc2ncnn3ccc(CN4CCC(C)(N)CC4)c23)ccc1Oc1ccn2ncnc2c1 | 8.10 |
| Cc1c(Oc2ccn3ncnc3c2)ccc(Nc2ncnn3ccc(CN4CCC(N)CC4)c23)c1F | 7.51 |
| COCC1(N)CCN(Cc2ccn3ncnc(Nc4ccc(Oc5ccn6ncnc6c5)c(C)c4)c23)CC1 | 8.05 |
| COCCNC1CCN(Cc2ccn3ncnc(Nc4ccc(Oc5ccn6ncnc6c5)c(C)c4)c23)CC1 | 7.19 |
| Cc1cc(Nc2ncnn3ccc(CN4CCCNCC4)c23)ccc1Oc1ccn2ncnc2c1 | 7.23 |
| Cc1cc(Nc2ncnn3ccc(CN4[C@@H]5CC[C@H]4C[C@H](O)C5)c23)ccc1Oc1ccn2ncnc2c1 | 8.40 |
| NC1CCN(Cc2ccn3ncnc(Nc4ccc(Oc5ccn6ncnc6c5)c(Cl)c4F)c23)CC1 | 7.96 |
